# target.of.assay: Cytochrome P450 1A2 (Homo sapiens, UniProt P05177)
# Sequence (P05177 whole entry): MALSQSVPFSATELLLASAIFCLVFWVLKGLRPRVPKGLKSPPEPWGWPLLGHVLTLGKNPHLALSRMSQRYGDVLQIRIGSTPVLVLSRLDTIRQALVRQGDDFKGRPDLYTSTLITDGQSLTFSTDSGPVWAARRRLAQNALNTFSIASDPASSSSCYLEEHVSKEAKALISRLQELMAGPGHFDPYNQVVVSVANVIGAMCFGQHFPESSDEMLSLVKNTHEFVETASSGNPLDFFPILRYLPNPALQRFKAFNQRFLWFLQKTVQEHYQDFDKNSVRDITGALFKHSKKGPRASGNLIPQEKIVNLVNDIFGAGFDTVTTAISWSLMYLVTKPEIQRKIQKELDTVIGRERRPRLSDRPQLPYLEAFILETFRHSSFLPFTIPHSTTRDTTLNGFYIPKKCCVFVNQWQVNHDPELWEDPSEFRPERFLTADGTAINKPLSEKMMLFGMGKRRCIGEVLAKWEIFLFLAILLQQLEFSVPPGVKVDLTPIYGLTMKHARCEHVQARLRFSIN
# assay.procedure: Inhibition of CYP1A2 (unknown origin) expressed in baculovirus infected insect cells using luciferin as substrate preincubated for 30 mins followed by NADPH addition and measured after 30 mins by luminescence based analysis
readout.name: IC50 (nM)
Answers are plain numbers, in nM.

| compound | result |
| --- | --- |
| Nc1nc(N)c(C(C[N+](=O)[O-])c2ccccc2OCc2ccc(Cl)c(Cl)c2)c(N)n1 (configuration not stated) | 1200 |

Here is the next item to consider.
Nc1nc(N)c(C(C[N+](=O)[O-])c2csc3ccccc23)c(N)n1 (configuration not stated) has a reported IC50 of 3000
